Target: T1, DLG3_2, Q92796
T1 sequence (Q92796 221-321, limits assumed, looked up): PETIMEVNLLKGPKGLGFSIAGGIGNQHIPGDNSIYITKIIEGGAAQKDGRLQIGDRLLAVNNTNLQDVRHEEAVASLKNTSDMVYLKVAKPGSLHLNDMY
Experiment: holdup assay
Design: key: below the threshold = too weak to quantify, mostly under pKd 3.1 to 4
Conditions: plain residues with an end cap or a label only (N-terminal biotin on a linker: ahx)
property-measured: pKd

As a guide, the following entries are already answered.
NRKREIFSNF [NHERF2, Q15599] ... below the threshold
PSASCAVTAA [PDLIM4, P50479;P50479-2] ... below the threshold
SDSSGQEYSL [KCTD3, Q9Y597] ... below the threshold
RRRKRKRTYL [HPV49-L2, P36762] ... below the threshold
RAVEEEESRF [PSCDBP, O60759] ... below the threshold

Q) Query: pKd; subject: ESLLLGPSNF [SHROOM4, Q9ULL8]
A) below the threshold
